Values from the Deep4Chem optical property database

experiment: photoluminescence quantum yield (fraction); solvent given as SMILES; conditions: in Cc1ccccc1
Threshold 0.6. photoluminescence quantum yield below it: MET. photoluminescence quantum yield at it or above: NOT MET.

See these solved cases before continuing.
{"chemicalSmiles": "Cc1cc(C)c(B(c2ccc(N(c3ccccc3)c3ccccc3)cc2)c2c(C)cc(C)cc2C)c(C)c1", "qualitativeLabel": "NOT MET"}
{"chemicalSmiles": "CCCCC1(CCCC)c2cc(C#Cc3ccc4ccc5cccc6ccc3c4c56)ccc2-c2ccc(N(c3ccccc3)c3ccccc3)cc21", "qualitativeLabel": "NOT MET"}
{"chemicalSmiles": "CCOC(=O)COc1ccc(/C=C/c2c(CC)c(C)c3n2[B-](F)(F)[N+]2=C(c4[nH]c(C)c(CC)c4C)c4ccccc4C2=C3C)cc1", "qualitativeLabel": "NOT MET"}
{"chemicalSmiles": "Cc1ccc(N(c2ccc(C)cc2)c2ccc(-c3ccc4c(c3)C(=O)c3ccccc3C4=O)cc2)cc1", "qualitativeLabel": "MET"}

Next molecule, please.
Req: State whether 0.6 exceeds photoluminescence quantum yield recorded for CCCCc1ccc(-n2c3c(c4c2c2c(n4-c4ccc(CCCC)cc4)-c4cc(F)ccc4NB2c2ccccc2)B(c2ccccc2)Nc2ccc(F)cc2-3)cc1 .
Resp: NOT MET

---

assay: photoluminescence quantum yield (fraction); solvent given as SMILES; settings: in CCO
Tick Y if photoluminescence quantum yield is 0.04 or greater. Tick N if photoluminescence quantum yield is less than 0.04.

Consider the following illustrative entries.
{"chemicalSmiles": "N#Cc1cnc(-c2c3ccccc3cc3ccccc23)nc1", "qualitativeLabel": "Y"}
{"chemicalSmiles": "O=c1cc(C(F)(F)F)c2cc3c4c(c2o1)CCCN4CCC3", "qualitativeLabel": "Y"}
{"chemicalSmiles": "CC1=[N+]2C(=C(c3ccc(-c4c5ccccc5c(-c5ccccc5)c5ccccc45)cc3)c3ccc(C)n3[B-]2(F)F)C=C1", "qualitativeLabel": "N"}
{"chemicalSmiles": "F[B-]1(F)OC(c2ccccc2)=Nc2sc(-c3ccccc3)n[n+]21", "qualitativeLabel": "N"}

# next compound below
Req: Threshold query (photoluminescence quantum yield >= 0.04) on O=C(O)COc1ccc2[nH]c3c(c2c1)CCCC3=O
Resp: N

---

experiment: photoluminescence quantum yield (fraction); solvent given as SMILES; conditions: in ClCCl
Labelling: photoluminescence quantum yield reported below 0.3 becomes condition met; at or above becomes condition not met.

Use these answered entries as a reference point.
{"chemicalSmiles": "c1ccc(-c2cc(-c3ccc(-c4nc(-c5ccccn5)c(-c5ccccn5)[nH]4)cc3)cc(-c3ccccn3)n2)nc1", "qualitativeLabel": "condition met"}
{"chemicalSmiles": "CC1=CC(C)=[N+]2C1=C(c1ccc3cccnc3n1)c1c(C)cc(C)n1[B-]2(F)F", "qualitativeLabel": "condition met"}
{"chemicalSmiles": "c1ccc2c(-c3c4ccccc4c(-c4ccc(-c5ccc(-n6c7ccccc7c7ccccc76)cc5)cc4)c4ccccc34)cccc2c1", "qualitativeLabel": "condition not met"}
{"chemicalSmiles": "C(=C\\c1cnc2ccccc2n1)/c1ccc(-c2ccc(N(c3ccccc3)c3ccccc3)cc2)cc1", "qualitativeLabel": "condition not met"}

# input for lookup
Req: Does the reported photoluminescence quantum yield of the following molecule sit strictly below 0.3? CCCCCc1ccc(C#Cc2cc(C#Cc3ccc(CCCCC)cc3)c3ccc4c(C(=O)c5ccccc5)cc(C#Cc5ccc(CCCCC)cc5)c5ccc2c3c54)cc1
Resp: condition not met

---

We begin with a simple list: items and their reported photoluminescence quantum yield.
experiment: photoluminescence quantum yield (fraction); solvent given as SMILES; conditions: in ClCCl
I'd appreciate a reply containing only the number, no unit.

{"compound": "CC(C)(C)NC(=O)c1ccc(-c2cc3ccccc3o2)c2ccc3c4ccccc4c4ccccc4c3c12", "photoluminescence quantum yield": 0.44}
{"compound": "Cc1ccc(C#Cc2ccc3nc4ccc(C#Cc5ccc(C)cc5)cn4c(=O)c3c2)cc1", "photoluminescence quantum yield": 0.43}
{"compound": "FC(F)(F)C(F)(F)C(F)(F)C(F)(F)C(F)(F)C(F)(F)CCOc1nnc(Cl)nn1", "photoluminescence quantum yield": 0.4}

Req: Name the recorded photoluminescence quantum yield of the item Cc1cc(C)n2c1C=[N+]1[N+](=C3C=NC=CN3[B-]1(F)F)[B-]2(F)F in your answer.
Resp: 0.57

Req: Consider the compound O=C1/C(=C\c2ccc3oc4ccccc4c3c2)S(=O)(=O)c2ccccc21 and give its recorded photoluminescence quantum yield.
Resp: 0.092

Req: Let me know recorded photoluminescence quantum yield for COc1ccccc1-c1c2ccc(=[N+]3CCCCC3)cc-2oc2cc(N3CCCCC3)ccc12 , thanks.
Resp: 0.92

Req: Recall and state the measured photoluminescence quantum yield for C(#Cc1cccs1)c1ncc(-c2ccccc2)o1 .
Resp: 0

---

test: photoluminescence quantum yield (fraction); solvent given as SMILES; details: in ClCCl
assayReadout: photoluminescence quantum yield
Note: the reply should be a number with no unit written.

The following compounds have reported results that may help.
{"compound": "F[B-]1(F)OC(c2ccccc2)=Nc2sc(-c3ccccc3)n[n+]21", "photoluminescence quantum yield": 0.03}
{"compound": "CCn1c2cc(-c3cccs3)ccc2c2ccc(-c3cccs3)cc21", "photoluminescence quantum yield": 0.61}
{"compound": "COc1ccc(N(c2ccc(OC)cc2)c2ccc3c(c2)C2(c4cc(N(c5ccc(OC)cc5)c5ccc(OC)cc5)ccc4C=C3)c3ccccc3-c3ccccc32)cc1", "photoluminescence quantum yield": 0.9}
{"compound": "O=[N+]([O-])c1ccc([N+]2=Cc3ccc4ccccc4c3O[B-]2(F)F)cc1", "photoluminescence quantum yield": 0.9}
{"compound": "COc1cc2c(cc1-c1ccccc1)Cc1c3c(c4c(c1-2)-c1cc(OC)c(-c2ccccc2)cc1C4)C(=O)N(CCC(C)C)C3=O", "photoluminescence quantum yield": 0.63}

Req: Let me know recorded photoluminescence quantum yield for COc1c2ccccc2c(OC)c2c1c1cccc(OC)c1n2C , thanks.
Resp: 0.44

Req: For the compound Cc1cc(-c2ccc(N(c3ccccc3)c3ccccc3)cc2)c2nsnc2c1-c1ccc(C(C)(C)C)cc1 , give its reported photoluminescence quantum yield.
Resp: 0.19

Req: Please give the documented photoluminescence quantum yield of Cn1c(=O)cc(C(=O)c2ccccc2)c2sc(-c3ccc(N(c4ccccc4)c4ccccc4)cc3)cc21
Resp: 0.05

---

assay: photoluminescence quantum yield (fraction); solvent given as SMILES; details: in ClC(Cl)Cl
Just so you know, the groups by photoluminescence quantum yield go like this: category 1: < 0.07; category 2: ≥ 0.07 and < 0.6; category 3: ≥ 0.6

{"molecule": "c1ccc2c(c1)oc1nc3oc4ccc(-n5c6ccccc6c6ccccc65)cc4c3cc12", "qualitativeLabel": "category 2"}
{"molecule": "COc1ccc(-n2c3c4ccccc4nc(-c4ccc(C#N)cc4)c3c3c2c2c(-c4ccc(C#N)cc4)nc4ccccc4c2n3-c2ccc(OC)cc2)cc1", "qualitativeLabel": "category 2"}
{"molecule": "c1ccc(-c2ccc(-c3nc(-c4ccccc4)c(N(c4ccccc4)c4ccccc4)[se]3)cc2)cc1", "qualitativeLabel": "category 2"}
{"molecule": "Cc1cc(C)c(B(c2c(C)cc(C)cc2C)c2cc3cc(N(C)C)c4ccccc4c3c3c2ccc2ccccc23)c(C)c1", "qualitativeLabel": "category 2"}

From here, focus on the item given below.
Req: Please indicate the class for CCCC1=CC2=C(c3c(C)cc(C)cc3C)c3cc(CCC)c(-c4ccc5ccc6cccc7ccc4c5c67)n3[B-](F)(F)[N+]2=C1c1ccc2ccc3cccc4ccc1c2c34 based on its photoluminescence quantum yield.
Resp: category 3

---

Recorded photoluminescence quantum yield values for a group of compounds are listed next.
assay: photoluminescence quantum yield (fraction); solvent given as SMILES; settings: in CC#N
Please state the value as a number alone, without comment.

Check out these entries, answers already filled in.
{"chemicalSmiles": "C(=C\\c1ccc(-c2ccc(/C=C/c3ccc(-n4c5ccccc5c5ccccc54)cc3)s2)s1)/c1ccc(-n2c3ccccc3c3ccccc32)cc1", "photoluminescence quantum yield": 0.09}
{"chemicalSmiles": "O=C1c2ccccc2-c2cc3ccccc3c(=O)n21", "photoluminescence quantum yield": 0.16}
{"chemicalSmiles": "c1ccc(-c2nc(-c3ccc(-c4nc(-c5ccccc5)c(-c5ccccc5)[nH]4)s3)[nH]c2-c2ccccc2)cc1", "photoluminescence quantum yield": 0.55}

Req: Name the recorded photoluminescence quantum yield of the item Cc1ccc(/C=C/c2ccccc2-[n+]2noc([O-])c2C)cc1 in your answer.
Resp: 0.0019

---

assay: photoluminescence quantum yield (fraction); solvent given as SMILES; conditions: in Cc1ccccc1
assayReadout: photoluminescence quantum yield
Give a plain numeric answer without units written out.

{"compound": "N#Cc1cccc(C#N)c1-n1c2ccccc2c2cc(-c3ccc4c(c3)c3ccccc3n4-c3c(C#N)cccc3C#N)ccc21", "photoluminescence quantum yield": 0.72}

Req: Indicate its recorded photoluminescence quantum yield; the compound in question is FC(F)(F)c1cc2n(n1)[B-](c1ccccc1)(c1ccccc1)[n+]1ccc3ccccc3c1-2
Resp: 0.712

Req: State its photoluminescence quantum yield for this compound: CCCCC(CC)CN1C(=O)c2cccc3c(C#Cc4ccc(N(c5ccccc5)c5ccccc5)cc4)ccc(c23)C1=O (stereo unspecified)
Resp: 0.89

Req: Please list photoluminescence quantum yield recorded for the compound CCC1=C(C)C2=C(c3c4ccccc4cc4ccccc34)c3c(C)c(CC)c(C)n3[B-](F)(F)[N+]2=C1C
Resp: 0.806

Req: Give photoluminescence quantum yield for the following compound: CCCCCCC1(CCCCCC)c2cc(-c3nc(-c4ccc5c(c4)C(CCCCCC)(CCCCCC)c4cc(N6c7ccccc7Sc7ccccc76)ccc4-5)nc(-c4ccc5c(c4)C(CCCCCC)(CCCCCC)c4cc(N6c7ccccc7Sc7ccccc76)ccc4-5)n3)ccc2-c2ccc(N3c4ccccc4Sc4ccccc43)cc21
Resp: 0.02

Req: Find the measured photoluminescence quantum yield of CCc1ccc(-c2nc(-c3ccc(-n4c5ccccc5c5ccccc54)cc3)cc(-c3ccc(-n4c5ccccc5c5ccccc54)cc3)n2)cc1 and report it.
Resp: 0.71
